Data origin, for the record: PubChem BioAssay (NCI)

- Protocol Notes: NCI Yeast Anticancer Drug Screen. Data for the mec2-1 strain (AID 157)
- Condition Info: S. cerevisiae mec2-1 strain, at 5.0 µM (retest, dose inferred, filed as 0.5), hits give high values
About 79,000 compounds went through this panel and 15% of them were active in at least one assay; those are over-represented in the sample as a whole.
Test Readout: growth inhibition (%)
Answers are plain numbers, in %.

Some entries whose results are on file:
Lab note: measured growth inhibition of CCCCCCCCCC/C=C\CC(=O)O was 5

Just so you know, measured growth inhibition for CC1=NN(C(=O)CC(=O)N(C(=O)c2ccccc2)c2ccc(Cl)cc2)C(=O)C1N=Nc1ccc([N+](=O)[O-])cc1 (stereo unspecified) came out at 8

Summary for this compound, NNc1nnc(-c2ccccc2)nc1Cc1ccccc1 : growth inhibition is 2

Lab book: growth inhibition of CC(C)(C)[Si](C)(C)OCC1OC(n2cnc3c(N)ncnc32)C2OC(=S)OC12 (stereo unspecified) noted as 5

List reported growth inhibition for each of these compounds:
1. CCSc1c2ccccc2c(-c2nc(F)nc(F)n2)n1CCc1ccccc1
2. O=C1c2ccccc2C2CCC1c1ccccc12 (stereo unspecified)

1. -43
2. -6
